Readings of Activity for the listed molecules
# Test system: Leishmania infantum
# ASSAY EXPLANATION: Inhibition of Leishmania infantum recombinant trypanothione synthetase using GSH/spermididine as substrate assessed as residual activity by measuring phosphate release from ATP at 30 uM after 15 mins by Biomol Green reagent based assay relative to control
# value in %; strip the unit string

Known Activity results, listed for orientation:
• Cc1nc(C(=O)Nc2nc(C(=O)O)cs2)cs1 = 102
• CCOC(=O)c1csc(NC(=O)c2csc(NC(=O)c3csc(NC(C)=O)n3)n2)n1 = 105
• CCOC(=O)c1csc(NC(=O)c2csc(NC(=O)c3csc(NC(=O)OC(C)(C)C)n3)n2)n1 = 106

Endpoint output: Activity of CCOC(=O)c1csc(NC(=O)c2csc(NC(=O)c3csc(C)n3)n2)n1 . Value?
110

Endpoint output: Activity of CC(C)(C)OC(=O)Nc1nc(C(=O)Nc2nc(C(=O)O)cs2)cs1 . Value?
89.9

###

# Tested on: Leishmania infantum
# ASSAY EXPLANATION: Inhibition of Leishmania infantum recombinant trypanothione synthetase using GSH/spermididine as substrate assessed as residual activity by measuring phosphate release from ATP at 30 uM after 15 mins by Biomol Green reagent based assay relative to control
RESULT TYPE: Activity (%)
# value in %; strip the unit string

Known Activity results, listed for orientation:
• CCOC(=O)c1csc(NC(=O)c2csc(NC(=O)c3csc(N)n3)n2)n1 = 99.8
• CCOC(=O)c1csc(NC(=O)c2csc(NC(=O)OC(C)(C)C)n2)n1 = 102
• CC(=O)Nc1nc(C(=O)Nc2nc(C(=O)O)cs2)cs1 = 102

Endpoint output: Activity of CC(=O)Nc1nc(C(=O)Nc2nc(C(=O)Nc3nc(C(=O)O)cs3)cs2)cs1 . Value?
83.6

Endpoint output: Activity of CNCCNC(=O)CN1C(=O)Cc2c([nH]c3ccc(Br)cc23)-c2ccc(Cl)cc21 . Value?
57.1

###

Readings of selectivity ratio for the listed compounds
# ASSAY EXPLANATION: Selectivity index, ratio of EC50 for murine macrophage J774 cells to EC50 for Trypanosoma brucei brucei 427 bloodstream forms
# Type: toxicity
# DETAILS: mouse; read-out: Ratio EC50
Lab note: record the figure alone, no unit after it.

- CCOC(=O)c1csc(NC(=O)c2csc(NC(=O)c3csc(N)n3)n2)n1: 19.6
- CCOC(=O)c1csc(NC(=O)c2csc(NC(=O)c3csc(NC(=O)OC(C)(C)C)n3)n2)n1: 16.5
- CC1CS(=O)(=O)CCN1/N=C/c1ccc([N+](=O)[O-])o1 (configuration not stated) [NIFURTIMOX]: 10
- CCOC(=O)c1csc(NC(=O)c2csc(NC(=O)OC(C)(C)C)n2)n1: 3.5
- CCOC(=O)c1csc(NC(=O)c2csc(NC(=O)c3csc(NC(C)=O)n3)n2)n1: 29.1
- CCOC(=O)c1csc(NC(=O)c2csc(NC(=O)c3csc(C)n3)n2)n1: 10.5

Shifting focus to the compound that follows.
Endpoint output: selectivity ratio of CCOC(=O)c1csc(NC(=O)c2csc(NC(C)=O)n2)n1 . Value?
7.4

###

# Test system: Trypanosoma cruzi
# ASSAY EXPLANATION: Inhibition of Trypanosoma cruzi recombinant trypanothione synthetase using GSH/spermididine as substrate assessed as residual activity by measuring phosphate release from ATP at 30 uM after 15 mins by Biomol Green reagent based assay relative to control
RESULT TYPE: Activity (%)
# value in %; strip the unit string

Endpoint output: Activity of CCOC(=O)c1csc(NC(=O)c2csc(NC(=O)OC(C)(C)C)n2)n1 . Value?
96.4

###

# Test system: Trypanosoma cruzi
# ASSAY EXPLANATION: Inhibition of Trypanosoma cruzi recombinant trypanothione synthetase using GSH/spermididine as substrate assessed as residual activity by measuring phosphate release from ATP at 30 uM after 15 mins by Biomol Green reagent based assay relative to control
RESULT TYPE: Activity (%)
# value in %; strip the unit string

Known Activity results, listed for orientation:
- CCOC(=O)c1csc(NC(=O)c2csc(C)n2)n1: 99.7
- CCOC(=O)c1csc(NC(=O)c2csc(NC(=O)c3csc(N)n3)n2)n1: 96.2

Endpoint output: Activity of CC(C)(C)OC(=O)Nc1nc(C(=O)Nc2nc(C(=O)Nc3nc(C(=O)O)cs3)cs2)cs1 . Value?
112

Endpoint output: Activity of CC(=O)Nc1nc(C(=O)Nc2nc(C(=O)O)cs2)cs1 . Value?
99

Endpoint output: Activity of CCOC(=O)c1csc(NC(=O)c2csc(N)n2)n1 . Value?
97.5
